Each entry below carries its reported GH (potency for the inhibition of GH release relative to SS-14).
Tested on: release of growth hormone induced by isobutyl methyl xanthine in pituitary cells
Format: cell-based, rat
Conditions: cultured rat pituitary cells, isobutyl methyl xanthine-induced release; SS-14 = 100
Description: To determine the effectiveness of the peptides to inhibit the release of growth hormone, in vitro radioimmunoassays are carried out using the SS analogs in side-by-side comparison with equimolar concentrations of somatostatin-14 having a known effectiveness to inhibit the release of growth hormone induced by the application of isobutyl methyl xanthine to pituitary cells. […]
Bridge positions count the residues as written; N and C are the ends. Peptide text beside a SMILES is read from it.
# output: bare number, implied unit %

Below are worked cases with known answers.
compound	system name	value unit	observed result
C[C@H](N)C(=O)NCC(=O)N[C@H]1CSSC[C@H](C(=O)O)NC(=O)[C@H](CO)NC(=O)[C@H]([C@@H](C)O)NC(=O)[C@H](Cc2ccccc2)NC(=O)[C@H]([C@@H](C)O)NC(=O)[C@H](CCCCN)NC(=O)[C@H](Cc2c[nH]c3ccccc23)NC(=O)[C@H](Cc2ccccc2)NC(=O)[C@H](Cc2ccccc2)NC(=O)[C@H](CC(N)=O)NC(=O)[C@H](CCCCN)NC1=O [Peptide 17, [D-Cys^14]--SS]	release of growth hormone induced by isobutyl methyl xanthine in pituitary cells	%	270
C[C@H](N)C(=O)NCC(=O)N[C@H]1CSSC[C@@H](C(=O)O)NC(=O)[C@H](CO)NC(=O)[C@H]([C@@H](C)O)NC(=O)[C@H](Cc2ccccc2)NC(=O)[C@H]([C@@H](C)O)NC(=O)[C@H](CCCCN)NC(=O)[C@H](Cc2c[nH]c3ccccc23)NC(=O)[C@H](Cc2ccccc2)NC(=O)[C@H](Cc2ccccc2)NC(=O)[C@H](CCCCN)NC1=O [Peptide 13, des-Asn^5 --SS] (H-AGCKFFWKTFTSC-OH; disulfide 3-13)	release of growth hormone induced by isobutyl methyl xanthine in pituitary cells	%	4
C[C@@H](O)[C@@H]1NC(=O)[C@H](Cc2ccccc2)NC(=O)[C@H]([C@@H](C)O)NC(=O)[C@H](CCCCN)NC(=O)[C@H](Cc2c[nH]c3ccccc23)NC(=O)[C@H](Cc2ccccc2)NC(=O)[C@H](Cc2ccccc2)NC(=O)[C@H](CC(N)=O)NC(=O)[C@H](CCCCN)NC(=O)[C@@H](N)CSSC[C@@H](C(=O)O)NC(=O)[C@H](CO)NC1=O [Peptide 9, des-Ala^1,Gly^2 --SS] (H-CKNFFWKTFTSC-OH; disulfide 1-12)	release of growth hormone induced by isobutyl methyl xanthine in pituitary cells	%	60

Give its GH (potency for the inhibition of GH release relative to SS-14) value. Item: C[C@H](N)C(=O)NCC(=O)N[C@H]1CSSC[C@@H](C(=O)O)NC(=O)[C@H](CO)NC(=O)[C@H]([C@@H](C)O)NC(=O)[C@H](Cc2ccccc2)NC(=O)[C@H]([C@@H](C)O)NC(=O)[C@H](CCCCN)NC(=O)[C@H](Cc2c[nH]c3ccccc23)NC(=O)[C@H](Cc2ccccc2)NC(=O)[C@H](Cc2ccccc2)NC(=O)[C@H](CC(N)=O)NC(=O)[C@@H](CCCCN)NC1=O [Peptide 15, [D-Lys^4]--SS] 22

Give its GH (potency for the inhibition of GH release relative to SS-14) value. Item: C[C@H](N)C(=O)NCC(=O)N[C@H]1CSSC[C@@H](C(=O)O)NC(=O)[C@H](CO)NC(=O)[C@H]([C@@H](C)O)NC(=O)[C@H](Cc2ccccc2)NC(=O)[C@H]([C@@H](C)O)NC(=O)[C@H](CCCCN)NC(=O)[C@H](Cc2c[nH]c3ccccc23)NC(=O)[C@H](Cc2ccccc2)NC(=O)[C@@H](Cc2ccccc2)NC(=O)[C@H](CC(N)=O)NC(=O)[C@H](CCCCN)NC1=O [Peptide 16, [D-Phe^6]--SS] 5

Give its GH (potency for the inhibition of GH release relative to SS-14) value. Item: C[C@H](N)C(=O)NCC(=O)N[C@H]1CSSC[C@@H](C(=O)O)NC(=O)[C@H](CO)NC(=O)[C@H]([C@@H](C)O)NC(=O)[C@H](Cc2ccccc2)NC(=O)[C@H]([C@@H](C)O)NC(=O)[C@H](CCCCN)NC(=O)[C@H](Cc2c[nH]c3ccccc23)NC(=O)[C@H](Cc2ccccc2)NC(=O)[C@H](Cc2ccccc2)NC(=O)[C@H](CC(N)=O)NC(=O)[C@H](CCCCN)NC1=O [SS-14, somatostatin] 100
